Source: patent US20200024330A1

assaySystem: HIV-1 Env of isolate MGRM-A-003 (HIV-1)
assayText: cell-based or functional assay
resultType: IC50 (µg/mL), pseudovirus neutralization

Query PGT-125 (antibody, V domains shown) VH: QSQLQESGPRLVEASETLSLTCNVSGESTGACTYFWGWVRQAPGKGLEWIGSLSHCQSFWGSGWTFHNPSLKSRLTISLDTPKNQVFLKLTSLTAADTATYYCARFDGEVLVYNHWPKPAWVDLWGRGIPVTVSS VL: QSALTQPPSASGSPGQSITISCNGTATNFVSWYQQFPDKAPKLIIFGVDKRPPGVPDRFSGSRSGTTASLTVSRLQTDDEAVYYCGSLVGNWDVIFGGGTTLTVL yields IC50 (µg/mL), pseudovirus neutralization of > 50 µg/mL

Query PGT-126 (antibody, V domains shown) VH: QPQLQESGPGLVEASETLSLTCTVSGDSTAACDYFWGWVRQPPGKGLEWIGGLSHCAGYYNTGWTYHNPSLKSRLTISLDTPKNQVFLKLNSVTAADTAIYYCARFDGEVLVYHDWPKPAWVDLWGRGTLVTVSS VL: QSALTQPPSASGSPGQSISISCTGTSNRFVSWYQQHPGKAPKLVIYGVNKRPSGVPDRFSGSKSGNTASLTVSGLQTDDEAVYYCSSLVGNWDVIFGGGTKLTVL yields IC50 (µg/mL), pseudovirus neutralization of > 50 µg/mL

Query PGT-127 (antibody, V domains shown) VH: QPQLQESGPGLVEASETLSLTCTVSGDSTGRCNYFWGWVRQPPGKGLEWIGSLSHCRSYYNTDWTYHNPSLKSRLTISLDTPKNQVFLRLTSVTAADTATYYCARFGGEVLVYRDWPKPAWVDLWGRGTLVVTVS VL: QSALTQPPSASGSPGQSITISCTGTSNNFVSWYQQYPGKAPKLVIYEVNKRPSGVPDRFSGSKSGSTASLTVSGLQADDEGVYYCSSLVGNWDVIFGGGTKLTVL yields IC50 (µg/mL), pseudovirus neutralization of > 50 µg/mL

Query PGT-123 (antibody, V domains shown) VH: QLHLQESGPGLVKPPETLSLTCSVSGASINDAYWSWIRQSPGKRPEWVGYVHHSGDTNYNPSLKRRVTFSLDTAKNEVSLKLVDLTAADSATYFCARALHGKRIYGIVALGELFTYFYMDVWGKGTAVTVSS VL: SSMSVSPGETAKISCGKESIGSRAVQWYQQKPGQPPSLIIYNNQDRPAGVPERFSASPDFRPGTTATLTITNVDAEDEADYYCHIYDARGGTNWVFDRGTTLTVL yields IC50 (µg/mL), pseudovirus neutralization of 0.495 µg/mL
